System: lacZ under control of the tetA promoter (PtetA) in E. coli KM3
Type: cell-based
condition: Table 4; thifensulfuron 20 ppm; 48 hrs at 30° C.
Please provide measured relative β-galactosidase activity, inducer Ts for the entries that follow.
One number for each entry.

L1-44: SU-responsive TetR(B) variant, library L1 hit, SEQ ID NO: 13 (protein, Sulfonylurea responsive repressor L1-44) MGSRLDKSKVINSALELLNEVGIEGLTTRKLAQKLGVEQPTLYWHVKNKRALLDALAIEMLDRHATHFCPLEGESWQDFLRNNAKSYRCALLSHRDGAKVYLGTAVTEKQYETAENQLAFLCQQGFSLENALYAVKAVAGFTLGCVLWDQESQVAKEERETPTTASMPPLLRQAVELADHQGAEPAFLFGLELIICGLEKQLKCESGS	1.9

Per the records, this molecule ( L1-31: SU-responsive TetR(B) variant, library L1 hit (protein, Sulfonylurea responsive repressor L1-31) MGSRLDKSKVINSALELLNEVGIEGLTTRKLAQKLGVEQPTLYWHVKNKRALLDALAIEMLDRHATHFCPLEGESWQDFLRNNAKSMRCALLSHRDGAKVMLGTRATEKQYETVENRLAFLCQQGFSLENALYAVRAVHWFTLGCVLIDQEMQVAKEERETPTTDSMPPLLRQAYELYDHQGAEPAFLFGLELIICGLEKQLKCESGS ) has relative β-galactosidase activity, inducer Ts equal to 0.9
